# pIC50 per entry
- Tested on: Leishmania donovani
- method_notes: Antileishmanial activity against Leishmania donovani MHOM/SD/62/ISCL2D axenic amastigotes after 72 hrs by alamar blue assay
- Format: functional
pIC50: −log10 of the molar value.
measured_quantity: pIC50

> print(dat)
                           smiles.structure  assay.value
1  CNc1nc(Cl)c2ncn([C@@H]3O[C@H](C)[C@@H](O)[C@H]3O)c2n1       < 3.47
2  CS(=O)(=O)C[C@H]1O[C@@H](n2cnc3c(N)nc(F)nc32)[C@H](O)[C@@H]1O         4.43
3  CNc1nc(F)nc2c1ncn2[C@@H]1O[C@H](C)[C@@H](O)[C@H]1O       < 3.45
4  CSC[C@H]1O[C@@H](n2cnc3c(N)nc(C#N)nc32)[C@H](O)[C@@H]1O         3.58
5  Nc1nc([Se][Se]c2nc(N)nc3c2ccn3[C@@H]2O[C@H](CO)[C@@H](O)[C@H]2O)c2ccn([C@@H]3O[C@H](CO)[C@@H](O)[C@H]3O)c2n1       < 3.84
6  CC(=O)NC[C@H]1O[C@@H](n2cnc3c(N)nc(Cl)nc32)[C@H](OC(C)=O)[C@@H]1OC(C)=O       < 3.64
7  CC(=O)NC[C@H]1O[C@@H](n2cnc3c(N)nc(Cl)nc32)[C@H](O)[C@@H]1O       < 3.55
8  Nc1nc(Cl)c2ccn([C@@H]3O[C@H](CO)[C@@H](O)[C@H]3O)c2n1         7.22
